experiment description: chemical recovery from spiked human plasma; higher = better extraction
conditions used: pooled human plasma; extraction method: solvent precipitation (ACN + hexane)
Listed below: chemical recovery values for each entry.
property label: chemical recovery (%)

INSERT INTO assay_data (compound, property_label, unit_of_measure, assay_result) VALUES
  ('Cn1cnc2c1c(=O)n(CCCC(=O)O)c(=O)n2C [1-(3-carboxypropyl)-3,7-dimethylxanthine]', 'chemical recovery', '%', 59.8),
  ('CC(=O)CCCCn1c(=O)c2c(ncn2C)n(C)c1=O [Pentoxifylline]', 'chemical recovery', '%', 76.5),
  ('CCN(CCO)c1ccc(/N=N/c2sc3cc(OC)ccc3[n+]2C)cc1 [Basic-Blue-41]', 'chemical recovery', '%', 18.5),
  ('CCCC(C)(COC(N)=O)COC(=O)NC(C)C (centres undefined) [Carisoprodol]', 'chemical recovery', '%', 78.1),
  ('N#Cc1cc(Br)c(O)c(Br)c1 [Bromoxynil]', 'chemical recovery', '%', 68.2),
  ('Nc1ccc2nc3ccc(N)cc3nc2c1 [2,8-Diaminophenazine]', 'chemical recovery', '%', 53.2),
  ('Cc1c(C=O)c(=O)n(-c2ccccc2)n1C [4-Formyl-antipyrine]', 'chemical recovery', '%', 69.5),
  ('O=C1CCCCCCCCCCCN1 [Dodecane-12-lactam]', 'chemical recovery', '%', 66.7),
  ('N[C@@H](Cc1cc(I)c(Oc2ccc(O)c(I)c2)c(I)c1)C(=O)O [3,3'',5-Triiodo-L-thyronine]', 'chemical recovery', '%', 56.3);

====

experiment description: chemical recovery from spiked human plasma; higher = better extraction
conditions used: pooled human plasma; extraction method: SPE only (HLB 96-well), PES comparison experiment
# label = true if chemical recovery >= 50% else false

INSERT INTO assay_data (compound, group_label) VALUES
  ('CC[C@H](C)C(=O)O[C@H]1C[C@H](O)C=C2C=C[C@H](C)[C@H](CC[C@@H](O)C[C@@H](O)CC(=O)O)[C@H]21', 'true'),
  ('C[N+](C)(C)CC(O)CCl (stereo not drawn) [(3-Chloro-2-hydroxypropyl)trimethylammonium]', 'false'),
  ('CCc1cccc(C)c1N(C(=O)CCl)C(C)COC (stereo not drawn)', 'false'),
  ('CC(C)(c1cc(Br)c(O)c(Br)c1)c1cc(Br)c(O)c(Br)c1', 'false'),
  ('CCCCn1cc[n+](C)c1', 'false'),
  ('O=S(=O)(O)c1nc2ccccc2s1', 'false'),
  ('NC(=O)N1c2ccccc2C=Cc2cc(O)ccc21 [2-Hydroxycarbamazepine]', 'true'),
  ('CCC(CC)Nc1c([N+](=O)[O-])cc(C)c(C)c1[N+](=O)[O-]', 'false');

====

experiment description: chemical recovery from spiked human plasma; higher = better extraction
conditions used: pooled human plasma; extraction method: PES+SPE (3 d PDMS equilibration then HLB SPE)
property label: chemical recovery (%)

INSERT INTO results (molecule, unit_of_measure, assay_result) VALUES
  ('O=P(OCC(Br)CBr)(OCC(Br)CBr)OCC(Br)CBr (stereo not given) [Tris(2,3-dibromopropyl)phosphate]', '%', 60.7),
  ('CC(C)N1C(=O)c2ccccc2N(C)S1(=O)=O', '%', 53.5),
  ('C1=Cc2ccccc2Nc2ccccc21', '%', 10.8),
  ('Cc1nnc(-c2ccccc2)c(=O)n1N', '%', 53),
  ('COc1c(Cl)ccc(Cl)c1C(=O)O', '%', 42.3),
  ('CC(c1ccc(O)cc1)(c1ccc(O)cc1)c1ccc(O)cc1 [1,1,1-Tris(4-hydroxyphenyl)ethane]', '%', 59.9),
  ('COC(=O)N(OC)c1ccccc1COc1ccn(-c2ccc(Cl)cc2)n1', '%', 71.5),
  ('Cc1c(C(C)C)c(=O)n(-c2ccccc2)n1C', '%', 48.4),
  ('CN(C)c1nc(=O)n(C2CCCCC2)c(=O)n1C', '%', 51.5),
  ('CN(C)C(=O)Nc1ccc(Cl)c(Cl)c1', '%', 56.2);
